# assay.summary: physchem
# test.settings: 66% dimethylformamide-water, pH 6.5, pK'a2
metric.name: pKa
Form: value (number only, do not type unit).

Input: Suppose we examine the compound COC1(NC(=O)CCCC(N)C(=O)O)C(=O)N2C(C(=O)O)=C(COC(N)=O)CS[C@@H]21 (stereo partly shown) [A16886I] ; what pKa value has been reported?
Output: 5.2

* * *

# assay.summary: physchem
# test.settings: 66% dimethylformamide-water, pH 5, pK'a2
Where a name gives a salt, the structure may show the parent alone.
metric.name: pKa
Form: value (number only, do not type unit).

Input: Suppose we examine the molecule COC1(NC(=O)CCCC(N)C(=O)O)C(=O)N2C(C(=O)O)=C(COC(N)=O)CSC21 (stereo not shown) [A16886I hydrochloride] ; what pKa value has been reported?
Output: 5.2
